Read-out: Interleukin-8 (IL8), CXCL8 (gene 3576)
Procedure Summary: BSK_LPS_IL8: BioMAP Diversity Plus: LPS Assay for Interleukin-8 (IL8) Biomarker Activity (AID 2283078)
Condition: primary human HUVEC with PBMC; actives raise or lower the signal
The source made the active and inactive calls. The calls were made as follows: active = hit-call score of the fitted dose curve at least 0.9, where 1 is the maximum; inactive = score below 0.9.
One label from this list, please: active, inactive

Molecule Smiles	Class Assignment
CC(C)(C)c1csc(-c2cc3cc(OCc4ccccc4CC(=O)O)ccc3o2)n1	inactive
CC(C)(O)c1ccc(CNC(=O)c2cccnc2Oc2ccc3nonc3c2)cc1	inactive
CN(C)c1ccc(C(=C2C=CC(=[N+](C)C)C=C2)c2ccc(N(C)C)cc2)cc1	active
O=C(O)c1ccccc1-n1cc(C(=O)O)c(=O)c2cc(Nc3c(F)cc(F)cc3Cl)c(Cl)cc21	inactive
O=C=NCCCCCCN=C=O	inactive

Q: What did this assay record as the result for `Oc1ccccc1` ?
A: inactive

Q: What did this assay record as the result for `O=C1CCC(C2CCCCC2)CC1` ?
A: inactive

Where do the numbers come from? From PubChem BioAssay (EPA / NIEHS).
